Where do these numbers come from? They come from PubChem BioAssay AID1918956.

Tested on: OVCAR-5 complex spheroids, viability
Protocol summary: Anticancer human tumor OVCAR-5 cell line growth inhibition;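 also: spheroids exposed to agents for seven days; 100% = DMSO vehicle control wells viability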
Study conditions: second compound 0.1 µM; first compound 0.001 µM; hits give low values
Measured property: viability, T/C (%)
Answer format: numeric, % implied, no suffix.

Illustrative cases are given below, each with its answer.
Documented viability, T/C of CC(C)CC(NC(=O)C(Cc1ccccc1)NC(=O)c1cnccn1)B(O)O (stereo not drawn) + NC1CC1c1ccc(-c2cccc(O)c2)cc1 : 103

Documented viability, T/C of CC(C)CC(NC(=O)CNC(=O)c1cc(Cl)ccc1Cl)B1OC(=O)CC(CC(=O)O)(C(=O)O)O1 (stereo not drawn) + NC1CC1c1ccc(-c2cccc(O)c2)cc1 : 87

Documented viability, T/C of CC[C@@]1(O)C(=O)OCc2c1cc1n(c2=O)Cc2cc3c(CN(C)C)c(O)ccc3nc2-1 + NC1CC1c1ccc(-c2cccc(O)c2)cc1 : 83.5

Documented viability, T/C of CC[C@@]1(O)C(=O)OCc2c1cc1n(c2=O)Cc2cc3c(CN(C)C)c(O)ccc3nc2-1 + NC1CCC(NC2CC2c2ccccc2)CC1 : 105

Documented viability, T/C of Cn1ncnc1C1c2n[nH]c(=O)c3cc(F)cc(c23)NC1c1ccc(F)cc1 (stereo not drawn) + NC1CC1c1ccc(-c2cccc(O)c2)cc1 : 94.1

Documented viability, T/C of CC(C)CC(NC(=O)C(Cc1ccccc1)NC(=O)c1cnccn1)B(O)O (stereo not drawn) + NC1CCC(NC2CC2c2ccccc2)CC1 : 100

Documented viability, T/C of Cn1ncnc1C1c2n[nH]c(=O)c3cc(F)cc(c23)NC1c1ccc(F)cc1 (stereo not drawn) + NC1CCC(NC2CC2c2ccccc2)CC1 : 95.3

Here is another compound to look at.
Documented viability, T/C of CC(C)CC(NC(=O)CNC(=O)c1cc(Cl)ccc1Cl)B1OC(=O)CC(CC(=O)O)(C(=O)O)O1 (stereo not drawn) + NC1CCC(NC2CC2c2ccccc2)CC1 : 95

* * *

System: OVCAR-5 complex spheroids, viability
Protocol summary: Anticancer human tumor OVCAR-5 cell line growth inhibition; active means viability on the fitted dose curve at most 10% of control; inactive means the rest;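 also: spheroids exposed to agents for seven days; 100% = DMSO vehicle control wells viability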
Study conditions: second compound 3.16 µM; first compound 0.00949 µM
Text: Multicellular complex tumor spheroid response to LSD1 Inhibitor Iadademstat in combination with a variety of drugs and investigational agents in selected tumor cell lines The current study was undertaken to assess response to LSD1 inhibitors in combination with standard-of-care drugs and investigational agents in solid tumor complex spheroid models as well as in the K-562 leukemia. […] Compounds. […] If the clinical Cmax for an agent had not been determined, the highest concentration tested was 10 microM. […]
Choose one outcome from this list and give only that: active, inactive

Please review the entries below; each comes with its answer.
Input line: For this compound, state the assay outcome: Nc1ncn(C2CC(O)C(CO)S2)c(=O)n1 (stereo unspecified) + NC1CC1c1ccc(-c2cccc(O)c2)cc1
Output line: inactive

Input line: For this compound, state the assay outcome: Nc1ncn(C2CC(O)C(CO)S2)c(=O)n1 (stereo unspecified) + NC1CCC(NC2CC2c2ccccc2)CC1
Output line: inactive

Input line: For this compound, state the assay outcome: Nc1ccn(C2OC(CO)C(O)C2(F)F)c(=O)n1 (stereo unspecified) + NC1CCC(NC2CC2c2ccccc2)CC1
Output line: inactive

Input line: For this compound, state the assay outcome: Nc1ccccc1NC(=O)c1ccc(CNC(=O)OCc2cccnc2)cc1 + NC1CC1c1ccc(-c2cccc(O)c2)cc1
Output line: inactive

Input line: For this compound, state the assay outcome: CCN(c1cc(-c2ccc(CN3CCOCC3)cc2)cc(C(=O)NCc2c(C)cc(C)[nH]c2=O)c1C)C1CCOCC1 + NC1CC1c1ccc(-c2cccc(O)c2)cc1
Output line: inactive

Now, please, on to the next compound.
Input line: For this compound, state the assay outcome: Nc1ccn(C2OC(CO)C(O)C2(F)F)c(=O)n1 (stereo unspecified) + NC1CC1c1ccc(-c2cccc(O)c2)cc1
Output line: inactive
